- Subject of test: T1, human CX3CR1 (human, UniProt P49238 1-355)
- T1 construct: overexpressed on CHO, BA/F3 or HEK293T cells; also called huCX3CR1; hCX3CR1
- T1 sequence: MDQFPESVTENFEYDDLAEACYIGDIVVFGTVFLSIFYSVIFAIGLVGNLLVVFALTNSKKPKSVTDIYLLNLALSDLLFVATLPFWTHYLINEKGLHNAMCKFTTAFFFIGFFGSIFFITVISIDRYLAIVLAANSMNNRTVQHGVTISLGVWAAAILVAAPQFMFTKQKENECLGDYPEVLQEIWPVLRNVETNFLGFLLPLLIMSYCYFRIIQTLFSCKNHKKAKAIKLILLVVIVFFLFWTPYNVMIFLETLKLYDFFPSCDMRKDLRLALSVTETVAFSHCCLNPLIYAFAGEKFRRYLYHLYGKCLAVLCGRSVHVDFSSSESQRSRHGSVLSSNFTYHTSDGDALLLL
- Procedure details: fractalkine competition FACS
For each of the binders below, state its % block.
Give the quantity in %, number only.

Given the binder CX3CR1BII00307 (VHH, also called CX3CR1BII307) VHH: DVQLVESGGGLVQPGGSLRLSCAASGSIFSSTAMAWYRQAPGKRRDLVAAISTVGVTKYADSVKGRFTISRDNSKNTVYLQMNSLRPEDTAVYYCTSDPRRGWDTRYWGQGTLVTVSS , write its reported % block.
97

Given the binder CX3CR1BIIPMP66B02 (VHH, alexa647 label where used as labeled competitor (Table 23), also called CX3CR1BII66B02; C100CX3CR1BII66B02; not shown: C-terminal c-myc and His6 tags) VHH: EVQLVESGGGSVQAGESLRLSCAASGSIFSSNAMAWYRQAPGKRRDLVAAINSVGVTKYADSVKGRFTISRDNAKNTVYLQMNSLKPEDTAVYYCTSDPRRGWDTRYWGQGTQVTVSS , write its reported % block.
98

Given the binder CX3CR1BII00306 (VHH, also called CX3CR1BII306) VHH: DVQLVESGGGLVQPGGSLRLSCAASGSIFSSTAMAWYRQAPGKRRDLVAAISSVGVTKYADSVKGRFTISRDNSKNTVYLQMNSLRPEDTAVYYCTSDPRRGWDTRYWGQGTLVTVSS , write its reported % block.
97

Given the binder CX3CR1BII00308 (VHH, also called CX3CR1BII308) VHH: DVQLVESGGGLVQPGGSLRLSCAASGSIFSSNAMAWYRQAPGKRRDLVAAINSVGVTKYADSVKGRFTISRDNSKNTVYLQMNSLRPEDTAVYYCTSDPRRGWDTRYWGQGTLVTVSS , write its reported % block.
97
